molecular target: human IgE pre-bound on human basophils (human) (UniProt P01854); test: cell-based or functional assay
Sequence (P01854 whole entry, chain 1 of 2): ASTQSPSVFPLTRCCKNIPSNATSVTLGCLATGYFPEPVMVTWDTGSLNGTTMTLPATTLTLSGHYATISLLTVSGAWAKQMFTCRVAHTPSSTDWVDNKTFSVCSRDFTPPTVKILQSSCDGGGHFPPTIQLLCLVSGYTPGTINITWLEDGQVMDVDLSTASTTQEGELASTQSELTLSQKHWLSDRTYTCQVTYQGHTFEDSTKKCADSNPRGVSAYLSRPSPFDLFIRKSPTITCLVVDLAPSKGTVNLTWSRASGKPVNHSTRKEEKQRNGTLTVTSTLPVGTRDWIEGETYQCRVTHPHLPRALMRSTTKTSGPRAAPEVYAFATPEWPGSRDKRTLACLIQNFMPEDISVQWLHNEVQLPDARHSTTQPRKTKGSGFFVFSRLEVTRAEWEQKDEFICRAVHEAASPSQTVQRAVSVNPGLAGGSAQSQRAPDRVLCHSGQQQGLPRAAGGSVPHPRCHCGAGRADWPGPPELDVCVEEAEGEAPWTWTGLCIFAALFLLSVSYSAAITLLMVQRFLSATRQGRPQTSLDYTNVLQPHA
Sequence (P12319 26-257, chain 2 of 2, further chain): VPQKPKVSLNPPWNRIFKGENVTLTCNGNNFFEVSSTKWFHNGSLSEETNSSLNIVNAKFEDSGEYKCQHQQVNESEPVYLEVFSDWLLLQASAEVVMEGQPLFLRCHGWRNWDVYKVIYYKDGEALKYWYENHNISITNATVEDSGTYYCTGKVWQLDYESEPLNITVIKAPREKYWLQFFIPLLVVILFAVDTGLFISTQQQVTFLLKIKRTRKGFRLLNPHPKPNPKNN
Exercise: for every item that follows, state its recorded % CD63+ basophils at 20 µg/mL.
Answers are plain numbers, in %.

binder: 18B9His-hIgG1-WT (antibody, V domains shown) VH: QVQLVESGGGLVQPGGSLRLSCAASGFTFSSYVMSWVRQAPGKGLEWVSSIYSDGSHTYYADSVKGRFTISRDNAKNTLYLQMNSLKSEDTAVYYCAKNLEHYSGSYYYTDPRYDYWGQGTQVTVSS VL: SSALTQPSALSVTLGQTAKITCQGGSLGSSYVHWYQQKPGQAPVLVIHDGDSRPSGIPERFSGSSSGGTATLTISGAQAEDEDDYYCQSADSSGNAVFGGGTHLTVL
reported_endpoint: % CD63+ basophils at 20 µg/mL
value_units: %
result_value: 12.6

binder: 18E2VLHis-ABDEG (antibody, V domains shown) VH: QLQLVESGGGLVQPGGSLRLSCAASGFTFSSYVMSWVRQAPGKGLEWVSSIYHDGSHTYYADFVKGRFTISRDNAKNTLYLQMNSLKSEDTAVYYCASGTSYSGSYYYTDPFFGSWGQGTQVTVSS VL: NFMLTQPSALSVTLGQTARITCQGDRLGSRYIHWYQQKPPQAPVLVIHDDDRRPSGIPERFSGSSSGGTATLTISGAQAEDDGDYYCQSADSSGNPVFGGGTHLTVL
reported_endpoint: % CD63+ basophils at 20 µg/mL
value_units: %
result_value: 3.7

Consider the record given below.
Q: Would you mind telling me what % CD63+ basophils at 20 µg/mL value was observed for 13E4-hIgG1-ABDEG (antibody, V domains shown) VH: ELQLVESGGGLVQPGGSLRLSCAASGFTFSSYVMSWVRQAPGKGLEWVSSIYHDGSHTYYADFVKGRFTISRDNAKNTLYLQMNSLKSEDTAVYYCASGTSYSGSYYYTDPFFGSWGQGTQVTVSS VL: HSAVTQPSALSVTLGQTAKITCQGGSLGSNYAYWYQQKPGQAPVLVIYDDDSRPSGIPERFSGSSSGGTATLTISGAQAEDEGDYYCQSADSNGNAVFGGGTHLTVL ?
Ans: 61.3
